reportedEndpoint: melting point

melting point reading for `CSc1ccccc1N1C(=O)c2ccc(C)cc2C1=O` : 175 to 177 °C

Input `CC(C)c1cccc(C(C)C)c1N1C(=O)c2ccc(C(C)(C)C)cc2C1=O` . Output melting point: 234 to 234.8 °C

Looking up `C[C@H](c1ccccc1)N1C(=O)c2cccc([N+](=O)[O-])c2C1=O` , I found its melting point recorded as 115 to 117 °C

* * *

- Test system: TNF-α production or secretion by human leukemia cells HL-60 (Okadaic acid stimulation)
- protocolNotes: Influence on TNF-α production or secretion by HL-60 cells stimulated by Okadaic acid (ELISA of supernatant)
- Assay type: cell-based
- conditionDescription: compound 0.3 μM; HL-60, Okadaic acid 50 nM, 16 hours (Table 8)
# amount of TNF-α in the supernatant, Okadaic acid alone = 100% >= 60% gives true, anything below gives false

*Q* Hello, I need to know if `C[C@H](c1ccccc1)N1C(=O)c2cccc([N+](=O)[O-])c2C1=O` has measured amount of TNF-α in the supernatant, Okadaic acid alone = 100% not below 60%. Thanks!
*A* false

*Q* Determine whether this compound has amount of TNF-α in the supernatant, Okadaic acid alone = 100% no lower than 60%: `C[C@H](c1ccccc1)N1C(=O)c2c(F)c(F)c(F)c(F)c2C1=O`
*A* false

*Q* Would you say `C[C@H](C1CCCCC1)N1C(=O)c2c(F)c(F)c(F)c(F)c2C1=O` shows amount of TNF-α in the supernatant, Okadaic acid alone = 100% at minimum 60%?
*A* false

*Q* Please tell me: is the compound `C[C@H](c1cccc2ccccc12)N1C(=O)c2c(F)c(F)c(F)c(F)c2C1=O` at or over 60% in terms of amount of TNF-α in the supernatant, Okadaic acid alone = 100%?
*A* false

*Q* Check if amount of TNF-α in the supernatant, Okadaic acid alone = 100% >= 60% (inclusive). Item: `C[C@@H](C1CCCCC1)N1C(=O)c2c(F)c(F)c(F)c(F)c2C1=O`
*A* true

*Q* API: above_or_equal(metric=amount of TNF-α in the supernatant, Okadaic acid alone = 100%, cutoff=60%) for item `C[C@@H](c1ccccc1)N1C(=O)c2c(F)c(F)c(F)c(F)c2C1=O`
*A* true

*Q* Does amount of TNF-α in the supernatant, Okadaic acid alone = 100% meet or surpass 60% for `C[C@@H](c1cccc2ccccc12)N1C(=O)c2c(F)c(F)c(F)c(F)c2C1=O` ?
*A* true
